Test: amyloid nucleation score (Sup35N fusion, yeast selection) (log enrichment); library NNK1; higher = more nucleation; inactive = no reads after selection;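 further: zero at mode of non-aggregating sequences after 7 days selection at 30°C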
Mark rule not met for amyloid nucleation score values under 0.01, and rule met for everything at or above.

# substance, answerLabel
rows = [
    ("EILIYNNYETFLVSFFEYGG", "rule met"),
    ("SKRMNGRNP", "rule met"),
    ("VMRNYFRDPDRPRLKWIYLS", "rule met"),
    ("NLSTSMSRREIMQQHQHRRL", "rule met"),
    ("LCVNERVHQSLSRQRIPNCL", "rule met"),
    ("VMPRTES", "rule met"),
    ("WNIRRIRSDTRTLFKCNL", "rule met"),
    ("RWSAFSVYAWGAYKLRC", "rule met"),
    ("DPCSVGFVPPMVLGSLGGDV", "rule not met"),
    ("FLGLLVPFFNWRDKKRKYSG", "rule met"),
    ("SFISKLLNYVVAFCVVCDEI", "rule met"),
    ("KAHRWDGRIFN", "rule not met"),
    ("TVLDFCFWYAGVVFKYARFV", "rule not met"),
    ("HIMEIVESFTIETRMIKGCV", "rule met"),
    ("RALFSIHNTAEGLSERWAAL", "rule met"),
    ("SDFNNTFIYSGEKQVLISTC", "rule not met"),
    ("EKLTKTYGTRFNKVKLFL", "rule met"),
    ("KNNIDIAFAV", "rule not met"),
    ("YVEFVFNIYSARFEWLLI", "rule not met"),
    ("LFSRFCTTVCKSTFRFDTR", "rule met"),
    ("KFSFCKS", "rule met"),
    ("MSYMCLNRYILVGYCWVQTT", "rule met"),
    ("QRARIINRKHV", "rule met"),
    ("FHVSDV", "rule not met"),
    ("RVDTLYKVHLSKIRPSGGST", "rule not met"),
    ("SVLTSMSITCWWKFWVGMSM", "rule not met"),
    ("LYYCSFRYMIKTRNLNVTFL", "rule met"),
    ("DASLQWYVDSLKFCWV", "rule met"),
    ("SVNLSI", "rule not met"),
]
